- protocol.description: qHTS assay for small molecule agonists of the antioxidant response element (ARE) signaling pathway - cell viability counter screen (AID 743203); note: nearly all actives have a fitted effect of over 55% in size
- cond: ARE-bla HepG2 viability, CellTiter-Glo luminescence, 16 h; series mostly up to 73.3 µM
Results filed as inconclusive are left out. Active and inactive are the calls of the source. Calls come from the whole dose curve.
Hi! Could you answer with just one of these? yes (1) = active, no (0) = inactive

See these solved cases before continuing.
Clc1cc(Cl)c(-c2cc(Cl)c(Cl)cc2Cl)cc1Cl ... no (0)
COc1cnc(OC)n2nc(NS(=O)(=O)c3c(OCC(F)F)cccc3C(F)(F)F)nc12 ... no (0)
CN/C(=N\[N+](=O)[O-])NCc1cnc(Cl)s1 ... no (0)

Would you kindly look at the next entry?
So what was the verdict on `N#Cc1sc2c(=O)c3ccccc3c(=O)c=2sc1C#N` in this test?
yes (1)

###

- protocol.description: A CellTox Green Cytotoxicity Assay to monitor cytotoxicity in HepG2 cells - 32 hour (AID 1224883); note: nearly all actives have a fitted effect of over 50% in size
- cond: CellTox Green fluorescence; series mostly up to 76.8 µM
Results filed as inconclusive are left out. Activity calls are given as the source filed them. The call rests on the fitted dose curve; in most records, active means well fitted activation curve with a large enough effect in the repeat runs; inconclusive means weak or mixed curves; inactive means flat fitted curve, though single readings scatter.
Hi! Could you answer with just one of these? true (1) (active), false (0) (inactive)

See these solved cases before continuing.
O.O.O.O.O.O.O=S(=O)([O-])[O-].[Ni+2] ... false (0)
O=P(Cl)(Cl)Cl ... false (0)
CCCCn1cc[n+](C)c1 (tested in a mixture with another compound) ... false (0)
O=c1[nH]c(Cl)c(Cl)cc1Cl ... false (0)
O=[N+]([O-])c1cc(C(F)(F)F)c(Cl)c([N+](=O)[O-])c1Nc1ncc(C(F)(F)F)cc1Cl ... true (1)

So what was the verdict on `CCOP(=O)(Sc1ccccc1)Sc1ccccc1` in this test?
false (0)

So what was the verdict on ClC1(Cl)C2(Cl)C3(Cl)C4(Cl)C(Cl)(Cl)C5(Cl)C3(Cl)C1(Cl)C5(Cl)C24Cl (stereo unspecified) in this test?
false (0)

So what was the verdict on `O=NN(CCO)CCO` in this test?
false (0)

So what was the verdict on `COc1ccc2c(c1OC)C(=O)O[C@@H]2[C@H]1c2cc3c(cc2CCN1C)OCO3` in this test?
false (0)

So what was the verdict on `CCCCON=O` in this test?
false (0)

So what was the verdict on `Cc1c([N+](=O)[O-])c(C)c([N+](=O)[O-])c(C(C)(C)C)c1[N+](=O)[O-]` in this test?
false (0)

So what was the verdict on `COC(=O)c1ccccc1S(=O)(=O)NC(=O)Nc1nc(C)nc(OC)n1` in this test?
false (0)

So what was the verdict on `ClSC(Cl)(Cl)Cl` in this test?
false (0)

So what was the verdict on CC(Cc1ccccc1)N(C)Cc1ccco1 (stereo unspecified) in this test?
false (0)

So what was the verdict on CCOP(=S)(NC(C)C)Oc1ccccc1C(=O)OC(C)C (stereo unspecified) in this test?
false (0)

So what was the verdict on `Cc1ccc2cc3c(ccc4ccccc43)c3c2c1CC3` in this test?
true (1)

So what was the verdict on `N#CSCc1ccccc1` in this test?
false (0)

So what was the verdict on CC1(C)C(C=C(Cl)Cl)C1C(=O)OC(C#N)c1ccc(F)c(Oc2ccccc2)c1 (stereo unspecified) in this test?
false (0)

So what was the verdict on `CC(C)=CCN1CC[C@@]2(C)c3cc(O)ccc3C[C@@H]1[C@@H]2C` in this test?
false (0)

So what was the verdict on `CCOP(=S)(OCC)Oc1cc(C)nc(N(CC)CC)n1` in this test?
false (0)

###

- protocol.description: qHTS RealTime-Glo MT Cell Viability Assay in HepG2 cells - 24 hour (AID 1224867); note: nearly all actives have a fitted effect of over 50% in size
- cond: RealTime-Glo luminescence; series mostly up to 76.8 µM
Records with an inconclusive call do not appear. Activity calls are given as the source filed them. Calls come from the whole dose curve; as a rule, active = well fitted cell-killing curve with a large enough effect in the repeat runs; inconclusive = weak or mixed curves; inactive = flat fitted curve, though single readings scatter.
Hi! Could you answer with just one of these? 1.0 (active), 0.0 (inactive)

See these solved cases before continuing.
CCOP(=S)(OCC)SC(CCl)N1C(=O)c2ccccc2C1=O (centres undefined) ... 0.0
CC[C@H](C)[C@H]1O[C@]2(C=C[C@@H]1C)C[C@@H]1C[C@@H](C/C=C(\C)[C@@H](O[C@H]3C[C@H](OC)[C@@H](O[C@H]4C[C@H](OC)[C@@H](NC)[C@H](C)O4)[C@H](C)O3)[C@@H](C)/C=C/C=C3\CO[C@@H]4[C@H](O)C(C)=C[C@@H](C(=O)O1)[C@]34O)O2 ... 1.0
Cc1cccc(Cc2cnc[nH]2)c1C ... 0.0

So what was the verdict on `CC1CCCC1` in this test?
0.0

###

- protocol.description: qHTS assay to test for compound auto fluorescence at 460 nm (blue) in HepG2 cells (AID 720687); note: % is set by controls: 0 for no effect and ±100 for the full control effect
- cond: autofluorescence 405/460 nm, 1 h; series mostly up to 91.3 µM
Active and inactive are the calls of the source. The call rests on the fitted dose curve; in most records, active means well fitted curve in the direction sought with a large enough effect in the repeat runs; inconclusive means weak or mixed curves; inactive means flat fitted curve, though single readings scatter.
measurement.label: fluorescence, % of fluorescent control

Observe how each entry below is paired with its result.
CSC1=N[C@@](C)(c2ccccc2)C(=O)N1Nc1ccccc1 ... inactive
CNC(=O)/C=C(\C)OP(=O)(OC)OC ... inactive
CC(Cc1ccc2c(c1)OCO2)NO (centres undefined) ... inactive
CCCCCCCCCCCCCCn1cc[n+](C)c1 ... inactive
O=C1C2(Cl)C3(Cl)C4(Cl)C(Cl)(Cl)C5(Cl)C3(Cl)C1(Cl)C5(Cl)C24Cl (centres undefined) ... inactive
CCN(CC)Cc1nccn1-c1ccc([N+](=O)[O-])cc1C(=O)c1ccccc1Cl ... inactive
COP(=O)(OC)O/C(=C\Cl)c1cc(Cl)c(Cl)cc1Cl ... inactive
CC[C@H](C)[C@H]1O[C@]2(C=C[C@@H]1C)C[C@@H]1C[C@@H](C/C=C(\C)[C@@H](O[C@H]3C[C@H](OC)[C@@H](O[C@H]4C[C@H](OC)[C@@H](NC)[C@H](C)O4)[C@H](C)O3)[C@@H](C)/C=C/C=C3\CO[C@@H]4[C@H](O)C(C)=C[C@@H](C(=O)O1)[C@]34O)O2 ... inactive

Report fluorescence, % of fluorescent control for CC(O)C(=O)[O][Hg][c]1ccccc1 (centres undefined) please.
inactive

###

- protocol.description: qHTS assay to identify small molecule antagonists of the thyroid receptor (TR) signaling pathway - cell viability counter screen (AID 743064); note: % is set by controls: 0 for no effect and ±100 for the full control effect; nearly all actives have a fitted effect of over 50% in size
- cond: GH3.TRE-Luc viability, CellTiter-Fluor, 24 h; series mostly up to 70.3 µM
Results filed as inconclusive are left out. Activity calls are given as the source filed them. The call rests on the fitted dose curve; in most records, active means well fitted cell-killing curve with a large enough effect in the repeat runs; inconclusive means weak or mixed curves, or effect the other way; inactive means no such curve, though single readings can be large or run the other way.
Listing of entries alongside the reported activity change, negative = cytotoxic.

Observe how each entry below is paired with its result.
Clc1c(Cl)c(Cl)c(Cl)c(Cl)c1Cl ... -0.947% [at 8.44 µM] (inactive)
CCCCC/C=C\C/C=C\C/C=C\C/C=C\CCCC(=O)NCC(=O)O ... 12.7% [at 8.44 µM] (inactive)
CC(=O)[O-].CC(=O)[O-].CC(=O)[O-].[Sb+3] ... 15.9% [at 8.44 µM] (inactive)

Here's the next entry for you.
Report activity change, negative = cytotoxic for `CCC[CH2][Sn]([CH2]CCC)([CH2]CCC)[O][Sn]([CH2]CCC)([CH2]CCC)[CH2]CCC` please.
15.8% [at 8.44 µM] (inactive)

###

- protocol.description: qHTS assay to test for compound auto fluorescence at 590 nm (red) in HepG2 cell free culture (AID 720684); note: % is set by controls: 0 for no effect and ±100 for the full control effect
- cond: cell-free medium autofluorescence, red 540/590 nm; series mostly up to 91.3 µM
Active and inactive are the calls of the source. Calls follow the shape of the dose curve; as a rule, active = well fitted curve in the direction sought with a large enough effect in the repeat runs; inconclusive = weak or mixed curves; inactive = flat fitted curve, though single readings scatter.
measurement.label: fluorescence, % of Rose Bengal

CCN(CC)C(=O)N[C@@H]1C=C2c3cccc4[nH]cc(c34)C[C@@H]2N(C)C1 ... inactive
CCCCCCCCCCCCCCn1cc[n+](C)c1 ... inactive
[Cl-].[Cl-].[Cl-].[Yb+3] ... inactive
CCC[CH2][Sn]([CH2]CCC)([CH2]CCC)[CH2]CCC ... inactive
CN1CCc2cc(Cl)c(O)cc2[C@H]2c3ccccc3CC[C@@H]21 ... inactive

Here's the next entry for you.
Report fluorescence, % of Rose Bengal for ClC1(Cl)C2(Cl)C3(Cl)C4(Cl)C(Cl)(Cl)C5(Cl)C3(Cl)C1(Cl)C5(Cl)C24Cl (stereo unspecified) please.
inactive

###

- protocol.description: qHTS assay for small molecules that induce genotoxicity in human embryonic kidney cells expressing luciferase-tagged ATAD5 - cell viability (AID 651634); note: nearly all actives have a fitted effect of over 25% in size
- cond: HEK293T ATAD5-luc cells viability, CellTiter-Fluor, 15.5 h; series mostly up to 83.3 µM
Inconclusive results are not listed. Activity calls are given as the source filed them. Calls follow the shape of the full dose curve.
Hi! Could you answer with just one of these? active, inactive

See these solved cases before continuing.
[O-][Cl+3]([O-])([O-])O ... inactive
Cc1c([N+](=O)[O-])c(C)c([N+](=O)[O-])c(C(C)(C)C)c1[N+](=O)[O-] ... inactive
CC(C)C(Nc1ccc(C(F)(F)F)cc1Cl)C(=O)OC(C#N)c1cccc(Oc2ccccc2)c1 (stereo not drawn) ... inactive
N#Cc1sc2c(=O)c3ccccc3c(=O)c=2sc1C#N ... inactive
N#Cc1c[nH]cc1-c1cccc2c1OC(F)(F)O2 ... inactive
CCC(C)Br (stereo not drawn) ... inactive
CCn1cc[n+](C)c1 (tested in a mixture with another compound) ... inactive
O=[N+]([O-])c1cc(C(F)(F)F)c(Cl)c([N+](=O)[O-])c1Nc1ncc(C(F)(F)F)cc1Cl ... active

So what was the verdict on `CCOC(=O)Cc1ccccc1` in this test?
inactive

So what was the verdict on `CC(C)Br` in this test?
inactive

So what was the verdict on `CNC(C)(C)Cc1ccccc1` in this test?
inactive

So what was the verdict on CC(C)NCC(O)c1ccccc1Cl (stereo not drawn) in this test?
inactive

So what was the verdict on `COc1ccc2[nH]cc(CCN(C(C)C)C(C)C)c2c1` in this test?
inactive
